# Lookup of reported melting point keyed by entry

COMPOUND_STRUCTURE_STRING	melting point
Br.Cc1cc(Oc2ccc3cc(C(=O)N4CCN(Cc5ccc(OCC(F)(F)F)cc5)CC4)n(C)c3c2)ncc1NC(=O)c1ccc(C(F)(F)F)cc1	222.4 to 224.6 °C
Br.Cn1c(C(=O)N2CCN(Cc3ccc(OC(F)F)cc3)CC2)cc2cc(Oc3ccc(NC(=O)c4ccc(C(F)(F)F)cc4)cn3)ccc21	229 to 231 °C
Br.Cn1c(C(=O)N2CCN(Cc3ccc(OC(F)(F)C(F)F)cc3)CC2)cc2cc(Oc3ccc(NC(=O)c4ccc(C(F)(F)F)cc4)cn3)ccc21	255 to 257 °C
Br.CN(C(=O)c1ccc(Cl)c(Cl)c1)c1ccc(Oc2ccc3cc(C(=O)N4CCN(Cc5ccc(OC(CF)CF)cc5)CC4)n(C)c3c2)nc1	188.2 to 191.8 °C

Specify melting point for `Cl.Cn1c(C(=O)N2CCN(Cc3ccc(OCC(F)(F)F)cc3)CC2)cc2ccc(Oc3ncc(NC(=O)c4ccc(C(F)(F)F)cc4)cn3)cc21` and stop. 250.8 to 254.2 °C

Specify melting point for `CN(C(=O)c1ccc(C(F)(F)F)cc1)c1ccc(Oc2ccc3c(c2)cc(C(=O)N2CCN(Cc4ccc(OCCF)cc4)CC2)n3C)nc1.O=C(O)/C=C\C(=O)O` and stop. 152 to 154 °C
